# System: FXR:RXRa (NR concentration 270 nM, RXRa partner concentration 90 nM)
# test: PBM binding z-score (relative to random genomic background probes); higher = stronger binding; sequences stand for … in GC…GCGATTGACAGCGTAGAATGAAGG
quantity.name: PBM binding z-score
// print number alone

Some solved entries appear below for comparison.
{"sequence.string": "ATCTCTAGGTAACTAAGTTCAGTGAATGCCGAAC", "PBM binding z-score": 0.51}
{"sequence.string": "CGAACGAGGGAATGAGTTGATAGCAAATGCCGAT", "PBM binding z-score": -0.82}
{"sequence.string": "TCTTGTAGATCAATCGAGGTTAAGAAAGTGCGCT", "PBM binding z-score": 1.32}
{"sequence.string": "TCTTGTAGATCAGCAAGTTAAGAAAGCTGGCCAA", "PBM binding z-score": -0.13}
{"sequence.string": "GCTACTGGGGCATCAGCAGGTTACCATAACTTAA", "PBM binding z-score": -0.035}
{"sequence.string": "ATCTCTAGGTAAAGTTAGTTCAGTGAATGCAAAT", "PBM binding z-score": 0.83}

Enquiry: Name the recorded PBM binding z-score for "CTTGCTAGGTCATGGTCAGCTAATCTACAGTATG" .
Return: 3.63

Enquiry: Name the recorded PBM binding z-score for "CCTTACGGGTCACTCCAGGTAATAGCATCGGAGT" .
Return: 5.01

Enquiry: Name the recorded PBM binding z-score for "GCTAGTTGGTCAGTAAAAGGTCACACAACGGTCG" .
Return: 3.52

Enquiry: Name the recorded PBM binding z-score for "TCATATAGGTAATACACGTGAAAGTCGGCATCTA" .
Return: 1.26

Enquiry: Name the recorded PBM binding z-score for "GCTAGTAGTTGAAAGGGCAACCGAATGATTCTCG" .
Return: 0.181

Enquiry: Name the recorded PBM binding z-score for "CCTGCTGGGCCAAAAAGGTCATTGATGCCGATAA" .
Return: 3.7

----------
# Tested on: RARg homodimer (NR concentration 270 nM)
# test: PBM binding z-score (relative to random genomic background probes); higher = stronger binding; sequences stand for … in GC…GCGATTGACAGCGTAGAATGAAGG
Note that class boundaries on PBM binding z-score are low range (below 0.9), mid range (0.9 to below 3), high range (3 or more)

Example results:
{"sequence.string": "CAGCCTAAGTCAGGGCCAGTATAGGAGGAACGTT", "group.label": "low range"}
{"sequence.string": "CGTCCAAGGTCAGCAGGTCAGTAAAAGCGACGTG", "group.label": "high range"}
{"sequence.string": "CCTACTGGGGCAAAGGTTACCATACTCAGTACGA", "group.label": "mid range"}

Enquiry: Kindly state the category for this sequence: "CGTCCAAGGTTAGAGAGGTCAGTGAATGCCGAGT"
Return: high range

Enquiry: Kindly state the category for this sequence: "ATACCAAGGTGATCCTGAGGTCGTTGATACTAAC"
Return: mid range

----------
# System: RXRa homodimer (NR concentration 180 nM)
# test: PBM binding z-score (relative to random genomic background probes); higher = stronger binding; sequences stand for … in GC…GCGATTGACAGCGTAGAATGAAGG
Note that class boundaries on PBM binding z-score are bin A = under 1, bin B = from 1 up to 3, bin C = 3 and over

{"sequence.string": "AGAATGAGGTTACCAAAGATGAGGGAAACGCTTG", "group.label": "bin B"}
{"sequence.string": "CGTCCAAGGTCAATGCTAGGTCAGTCAAAGCATT", "group.label": "bin C"}
{"sequence.string": "TCTTGTAGATCAACAAGAGGTTAAGAAAGATCGA", "group.label": "bin B"}
{"sequence.string": "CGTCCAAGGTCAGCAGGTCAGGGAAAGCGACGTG", "group.label": "bin C"}
{"sequence.string": "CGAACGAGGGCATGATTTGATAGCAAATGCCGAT", "group.label": "bin A"}

Enquiry: Kindly state the category for this sequence: "CGTACAGGGTCAGCTAGGCCAGAGTAGGGACGGC"
Return: bin C

Enquiry: Kindly state the category for this sequence: "TCTACTAGGTCAGTTGGTCAGCTAACGAGCTGCC"
Return: bin B

Enquiry: Kindly state the category for this sequence: "CAAACTAGGTCAACGGTCAAAGTCGAGCCAACCA"
Return: bin C

Enquiry: Kindly state the category for this sequence: "CTACCAAGGTGAACAAGGTCATTGATTACTATTC"
Return: bin C

Enquiry: Kindly state the category for this sequence: "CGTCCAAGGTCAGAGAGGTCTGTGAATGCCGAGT"
Return: bin C
